# Test system: CP268
# protocol.notes: qHTS profiling for inhibitors of Plasmodium falciparum proliferation (AID 504749); note: nearly all actives have a fitted effect of over 60% in size
# measurement.context: P. falciparum in erythrocytes, SYBR Green DNA, 72 h; series mostly up to 28.7 µM
Records with an inconclusive call do not appear. Calls of active or inactive are those of the source. Calls come from the whole dose curve; as a rule, active = well fitted inhibition curve with a large enough effect; inconclusive = small, poorly fitted or top-dose-only effect; inactive = flat fitted curve, though single readings scatter.
Pick one: True = active, False = inactive

// outcome(item) with item = "C=Cc1c(C)c2cc3[nH]c(cc4nc(cc5nc(cc1[nH]2)C(C)=C5CCC(=O)O)C(CCC(=O)O)=C4C)c(C)c3C=C"
False

Which outcome was assigned to "NC(=O)NNc1ccccc1" in this test?
False

Tell me the assay call for "O=C(Oc1ccccc1C(=O)O)c1ccccc1O" please.
False

Which result was noted for this molecule in the test: "Cc1cc2c(cc1S(N)(=O)=O)S(=O)(=O)CCC2"
False

How did this test come out for "CCCCOc1cc(C(=O)OCCN(CC)CC)ccc1N" ?
False

Assay outcome for CC(CN1c2ccccc2Sc2ccccc21)N(C)C (stereo unspecified) : what was it?
False

Short answer needed: outcome of this test for "CCOC(=O)c1ccc(O)cc1" ?
False

Called result for "O=C1NS(=O)(=O)c2ccccc21"
False

For OCC(O)CN1CCN(c2ccccc2)CC1 (stereo unspecified) , what call appears in the results of this test?
False

State the result this test recorded for "CCOC(=O)[C@H](CCc1ccccc1)N[C@@H](C)C(=O)N1C(=O)N(C)C[C@H]1C(=O)O" .
False

---

# protocol.notes: qHTS of pediatric cancer cell lines to identify multiple opportunities for drug repurposing: Primary screen for OHS-50 cells (AID 1347103);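 note: plate controls were DMSO neutral control for no effect and bortezomib positive control for full effect; nearly all actives have a fitted effect of over 40% in size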
# measurement.context: OHS-50 osteosarcoma viability, CellTiter-Glo luminescence, 48 h; series mostly up to 57.3 µM
Inconclusive results are not listed. The source made the active and inactive calls. The call rests on the fitted dose curve; in most records, active means well fitted cell-killing curve with a large enough effect; inconclusive means small, poorly fitted or top-dose-only effect; inactive means no such curve, though single readings can be large or run the other way.
measured.parameter: activity change, negative = cytotoxic

[
  {
    "structure": "O=c1[nH]c(=O)c2[nH]c(=O)[nH]c2[nH]1",
    "activity change, negative = cytotoxic": "-8.33% [at 11.5 µM] (inactive)"
  },
  {
    "structure": "N[C@@H](CSSC[C@H](N)C(=O)O)C(=O)O",
    "activity change, negative = cytotoxic": "6.93% [at 0.73 µM] (inactive)"
  },
  {
    "structure": "C[C@@H]1CC[C@@]2(OC1)O[C@H]1C[C@H]3[C@@H]4CC[C@H]5C[C@@H](O)CC[C@]5(C)[C@H]4CC(=O)[C@]3(C)[C@H]1[C@@H]2C",
    "activity change, negative = cytotoxic": "9.93% [at 6.18 µM] (inactive)"
  },
  {
    "structure": "C[C@](N)(Cc1ccc(O)cc1)C(=O)O",
    "activity change, negative = cytotoxic": "-5.63% [at 6.18 µM] (inactive)"
  }
]

Query: activity change, negative = cytotoxic; subject: "NC(N)=NCCC[C@H](N)C(=O)O"
-1.99% [at 6.18 µM] (inactive)

---

# System: P93_24
# protocol.notes: qHTS profiling for inhibitors of Plasmodium falciparum proliferation (AID 504749); note: nearly all actives have a fitted effect of over 60% in size
# measurement.context: P. falciparum in erythrocytes, SYBR Green DNA, 72 h; series mostly up to 28.7 µM
Records with an inconclusive call do not appear. Active and inactive are the calls of the source. Calls come from the whole dose curve; as a rule, active = well fitted inhibition curve with a large enough effect; inconclusive = small, poorly fitted or top-dose-only effect; inactive = flat fitted curve, though single readings scatter.
Select the matching outcome among active, inactive

The examples below pair each entry with its known result.
[
  {
    "structure": "CCN(CC)CCNC(=O)c1c(C)[nH]c(/C=C2\\C(=O)Nc3ccc(F)cc32)c1C",
    "group.label": "active"
  },
  {
    "structure": "CCCCOc1cc(C(=O)OCCN(CC)CC)ccc1N",
    "group.label": "inactive"
  },
  {
    "structure": "C[C@](N)(Cc1ccc(O)cc1)C(=O)O",
    "group.label": "inactive"
  }
]

Next:
Answer briefly: the call reported for "NCCNCCNCCNCCN" in this assay.
inactive

---

# Test system: CP329
# protocol.notes: qHTS profiling for inhibitors of Plasmodium falciparum proliferation (AID 504749); note: nearly all actives have a fitted effect of over 60% in size
# measurement.context: P. falciparum in erythrocytes, SYBR Green DNA, 72 h; series mostly up to 28.7 µM
Inconclusive results are not listed. Activity calls are given as the source filed them. The call rests on the fitted dose curve; in most records, active means well fitted inhibition curve with a large enough effect; inconclusive means small, poorly fitted or top-dose-only effect; inactive means flat fitted curve, though single readings scatter.
Field 'call' accepts active, inactive

[
  {
    "molecule": "CCN(CC)CCNC(=O)c1c(C)[nH]c(/C=C2\\C(=O)Nc3ccc(F)cc32)c1C",
    "group.label": "active"
  }
]

# lookup: test call for "CC1=C(/C=C/C(C)=C/C=C/C(C)=C/C(=O)O)C(C)(C)CCC1"
inactive

Could you please tell me the result logged for "CN(C)CCN(Cc1ccccc1)c1ccccn1" in this assay?
inactive

For this molecule, state the assay outcome: "N[C@@H](CSCCCO)C(=O)O"
inactive

How did this test come out for CC(C)(C)NCC(O)COc1ccc(NC(=O)NC2CCCCC2)cc1 (stereo not given) ?
inactive

Record lookup: outcome of this test for "Cc1ncc(COP(=O)(O)O)c(C=O)c1O" ?
inactive

---

# protocol.notes: qHTS to identify inhibitors of the type 1 interferon - major histocompatibility complex class I in skeletal muscle: primary screen against the NCATS Mechanism Interrogation Plate v5.0 (MIPE) Libary (AID 1347411); note: nearly all actives have a fitted effect of over 65% in size
# measurement.context: iHSKM cells + IFN-b, HiBiT-tagged MHC-I luminescence, 24 h; series mostly up to 45.8 µM
Records with an inconclusive call do not appear. Activity calls are given as the source filed them. The call rests on the fitted dose curve; in most records, active means well fitted inhibition curve with a large enough effect; inconclusive means small, poorly fitted or top-dose-only effect; inactive means no such curve, though single readings can be large or run the other way.
Returns: one label drawn from active, inactive

[
  {
    "compound": "C[C@H]1O[C@@H](n2cc(F)c(=O)[nH]c2=O)[C@H](O)[C@@H]1O",
    "group.label": "inactive"
  }
]

Kindly provide the recorded test outcome for the following compound: "CC(=O)OCC(=O)[C@@]1(O)CC[C@H]2[C@@H]3CCC4=CC(=O)CC[C@]4(C)[C@H]3C(=O)C[C@@]21C"
inactive

So what was the verdict on "NC(=O)c1ncn([C@@H]2O[C@H](CO)[C@@H](O)[C@H]2O)n1" in this test?
inactive

Assay result, entry COc1ccc2[nH]c(S(=O)Cc3ncc(C)c(OC)c3C)nc2n1 (centres undefined) — outcome?
inactive

I would be grateful if you could indicate the recorded call for "Nc1ncnc2c1ncn2[C@@H]1O[C@H](CO)[C@@H](O)[C@H]1O" .
inactive

Write down the call the test reported for this compound. Item: "CN(N=O)C(=O)N[C@@H]1[C@@H](O)[C@H](O)[C@@H](CO)O[C@@H]1O"
inactive

Per the records of this test, what outcome belongs to "CC[C@H]1CN2CCc3cc(OC)c(OC)cc3[C@@H]2C[C@@H]1C[C@H]1NCCc2cc(OC)c(OC)cc21" ?
active

Record request — test call for "Cn1c(=O)c2c(ncn2CC2OCCO2)n(C)c1=O"
inactive

What outcome does the record of this test show for "NC(=O)c1ncn([C@@H]2O[C@H](CO)[C@@H](O)[C@H]2O)c1N" ?
inactive

---

# protocol.notes: qHTS of pediatric cancer cell lines to identify multiple opportunities for drug repurposing: Confirmatory screen for SK-N-MC cells (AID 1347111);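 note: cells exposed to compound for 48 h before the readout; nearly all actives have a fitted effect of over 70% in size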; note: potency is the fitted concentration of half-maximal effect
# measurement.context: SK-N-MC cell viability; series mostly up to 45.9 µM
# Procedure: Drug repurposing or repositioning has been offered as a strategy for drug development in oncology programs. […] [1] Shen, M et al. Quantitative high-throughput phenotypic screening of pediatric cancer cell lines identifies multiple opportunities for drug repurposing. […] Cells were assayed in growth media at a density of 500-1,000 cells/well. […] After a 15 min incubation at room temperature, samples were analyzed for luminescence intensity using a ViewLux High-throughput CCD imager equipped with clear filters.
Results filed as inconclusive are left out. Calls of active or inactive are those of the source. The call rests on the fitted dose curve; in most records, active means well fitted cell-killing curve with a large enough effect; inconclusive means small, poorly fitted or top-dose-only effect; inactive means no such curve, though single readings can be large or run the other way.
measured.parameter: Potency

The cases that follow already have their Potency on record.
[
  {
    "structure": "CCN(CC)CCNC(=O)c1cc(Cl)c(N)cc1OC",
    "Potency": "inactive"
  },
  {
    "structure": "O=C(O)CN1C(=O)c2cccc3cccc(c23)C1=O",
    "Potency": "2.93 µM (active)"
  },
  {
    "structure": "O=C1N=C(O)CN1/N=C/c1ccc(-c2ccc([N+](=O)[O-])cc2)o1",
    "Potency": "inactive"
  },
  {
    "structure": "Cc1ccc2nc(N)[nH]c(=O)c2c1Sc1ccncc1",
    "Potency": "2.08 µM (active)"
  },
  {
    "structure": "CCCCC/C(C=O)=C\\c1ccccc1",
    "Potency": "9.27 µM (active)"
  }
]

Shift focus to the following entry.
Can you look up the measured Potency of "C[C@@H]1C[C@H]2[C@@H]3C[C@H](F)C4=CC(=O)C=C[C@]4(C)[C@@]3(F)[C@@H](O)C[C@]2(C)[C@@]1(O)C(=O)CO" for me?
13.1 µM (active)

---

# protocol.notes: qHTS of pediatric cancer cell lines to identify multiple opportunities for drug repurposing: Primary screen for BT-37 cells (AID 1347094)
# measurement.context: BT-37 viability, CellTiter-Glo luminescence, 48 h; series mostly up to 57.3 µM
Records with an inconclusive call do not appear. Activity calls are given as the source filed them. The call rests on the fitted dose curve; in most records, active means well fitted cell-killing curve with a large enough effect; inconclusive means small, poorly fitted or top-dose-only effect; inactive means flat fitted curve, though single readings scatter.
Choose the fitting class; nothing outside YES = active, NO = inactive is accepted.

Solved cases below.
[
  {
    "compound": "O=C(O)Cc1sc(-c2ccccc2)nc1-c1ccc(Cl)cc1",
    "group.label": "NO"
  },
  {
    "compound": "CSc1ccc2c(c1)N(CCC1CCCCN1C)c1ccccc1S2 (configuration not stated)",
    "group.label": "YES"
  },
  {
    "compound": "O=C1NS(=O)(=O)c2ccccc21",
    "group.label": "NO"
  },
  {
    "compound": "Nc1ccc(S(=O)(=O)Nc2nccs2)cc1",
    "group.label": "NO"
  },
  {
    "compound": "Nc1cc(=O)[nH]c(N)n1",
    "group.label": "NO"
  },
  {
    "compound": "C[C@H](NC(CCc1ccccc1)C(=O)O)C(=O)N1CCC[C@H]1C(=O)O (some centres not stated)",
    "group.label": "NO"
  },
  {
    "compound": "O=C(O)c1ccccc1-c1ccc(C(F)(F)F)cc1",
    "group.label": "NO"
  },
  {
    "compound": "Nc1ccc(S(=O)(=O)NC(=O)c2ccccc2)cc1",
    "group.label": "NO"
  }
]

How did this test come out for "CC/C=C(\C(=O)N[C@@H]1C(=O)N2C(C(=O)OCOC(=O)C(C)(C)C)=C(COC(N)=O)CS[C@H]12)c1csc(N)n1" ?
NO

So what was the verdict on "COc1ccc2cc1Oc1ccc(cc1)C[C@H]1c3c(cc4c(c3Oc3cc5c(cc3OC)CCN(C)[C@@H]5C2)OCO4)CCN1C" in this test?
YES

Each compound tested received a call. Report the one for "CC[N+](CC)(CC)CCOc1ccc(/C=C/c2ccccc2)cc1" .
YES

In this assay, the call recorded for "C#CCN(C)Cc1ccccc1" was what?
NO
